- assayText: NCI Yeast Anticancer Drug Screen. Data for the bub3 strain (AID 167)
- assaySetup: S. cerevisiae bub3 mutant strain, at 50.0 µM, stronger effect = higher value
About 79,000 compounds went through this panel and 15% of them were active in at least one assay; those are over-represented in the sample as a whole. Active and inactive are the calls of the source. Rule as the data show it: active = growth inhibition above about 70%; inactive = the rest.
Parameter: growth inhibition. Scope: all listed entries.

{"columns": ["compound", "growth inhibition"],
 "data": [
  ["C[N+]1(C(CO)Cc2c[nH]c3ccccc23)Cc2ccccc2C1 (stereo not drawn)", "-65.5% (inactive)"],
  ["COCn1c2ccc(OC(C)=O)cc2c2c(=O)oc(N(C)C)nc21", "-11.6% (inactive)"],
  ["O=c1[nH]cc(O)c(=O)[nH]1", "-17.8% (inactive)"]
]}

###

- assayText: NCI Yeast Anticancer Drug Screen. Data for the bub3 strain (AID 167)
- assaySetup: S. cerevisiae bub3 mutant strain, at 50.0 µM, stronger effect = higher value
About 79,000 compounds went through this panel and 15% of them were active in at least one assay; those are over-represented in the sample as a whole. Where a SMILES comes first, the peptide text is derived from it. The star is where a group is joined. Cbz = O=C(OCc1ccccc1)*

{"columns": ["molecule", "u", "growth inhibition"],
 "data": [
  ["CCCCNc1nc(C#N)c(N)s1", "%", 11.7],
  ["CCOC(=O)/C(C#N)=C/c1ccc(-c2cc(C(F)(F)F)cc(C(F)(F)F)c2)o1", "%", -2.5],
  ["O=C(C[n+]1ccccc1Br)c1ccc(I)cc1", "%", 17.1],
  ["CCOCC(OCC)OCC", "%", -5.45],
  ["O=C1CCCCCCCS(=O)(=O)C1", "%", -4.95],
  ["Nc1nc(Cl)nc(Nc2ccc(-c3cc4ccc(-c5ncc[nH]5)cc4[nH]3)cc2)n1", "%", -3.6],
  ["Nc1nnc(Sc2n[nH]c(=O)[nH]c2=O)s1", "%", -4.9],
  ["OC1(c2ccccc2)c2ccccc2Oc2cc(Cl)ccc21 (centres undefined)", "%", 2.15],
  ["O=C(Nc1ccc(I)cc1)c1ccc([N+](=O)[O-])cc1", "%", 0.35],
  ["CCC(C)C=O (centres undefined)", "%", 10.4],
  ["CC(C)CC(CC(C)C)OB(OC(CC(C)C)CC(C)C)OC(CC(C)C)CC(C)C", "%", -0.3],
  ["O=C(Nc1ccn(CCOC(=O)c2ccccc2)c(=O)n1)c1ccccc1", "%", 23.7],
  ["CC(=O)CC(=O)Nc1ccc(C)c(C)c1", "%", 40],
  ["Cc1cccc(NC(=O)c2c(Cl)c(Cl)c(Cl)c(Cl)c2C(=O)O)c1C", "%", 5.8],
  ["N#CC1CC=CCN1CCc1ccccc1 (centres undefined)", "%", 20.7],
  ["CN(C)c1nc(=S)c2cn[nH]c2[nH]1", "%", 6],
  ["O=C(O)/C=C(/CC(=O)O)c1ccc(O)cc1", "%", -18.6],
  ["CCC(C)C1CCCCC1OC(=O)CCl (centres undefined)", "%", -9.55],
  ["O=C(Cc1ccccc1)NC(CSCc1ccccc1)C(=O)O (centres undefined)", "%", 10.8],
  ["CCOC(=O)CCC(NC(=O)C(CCC(=O)O)NC(=O)OCc1ccccc1)C(=O)OCC (stereo not drawn) (Cbz-Glu-Glu(OEt)-OEt; configuration not given here)", "%", 0.05],
  ["COc1cc2nc(C(O)C(O)c3nc4cc(OC)c(OC)cc4[nH]3)[nH]c2cc1OC (centres undefined)", "%", -1.1],
  ["COC(=O)CC[C@@H](NC(=O)C(C)NC(=O)COC1C(O)C(COC(=O)CCCCCCCCCCNC(=O)c2ccc([N+](=O)[O-])c3[nH]c4cc(Br)ccc4c(=O)c23)OC(OCc2ccccc2)C1NC(C)=O)C(N)=O (some centres undefined)", "%", -5.75],
  ["COc1cc(C)c(O)c(C/C=C(\\C)CC2=C[C@@]3(C)CCC[C@@]3(C)[C@]3(CC(O)C(C)(C)O3)O2)c1 (some centres undefined)", "%", 4.95],
  ["O=c1[nH]cc(S)c(=O)[nH]1", "%", -9.7],
  ["CCOC(=O)COc1ccc2c(C)cc(=O)oc2c1[N+](=O)[O-]", "%", 6.6],
  ["CCn1c(=O)c2[nH]c(Br)nc2n(CC)c1=O", "%", 0.3],
  ["CCN1c2ccccc2CC(C#N)(CCN(C)C)c2ccccc21 (centres undefined)", "%", 6.95],
  ["CCSc1nc(Cl)nc2c1cnn2C", "%", 24.9],
  ["CCC(C)(O)c1cn(-c2cccc(S(=O)(=O)O)c2)nn1 (centres undefined)", "%", -8.65]
]}

###

- assayText: NCI Yeast Anticancer Drug Screen. Data for the sgs1 mgt1 strain (AID 161);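 also: 0% = growth of cultures given vehicle only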
- assaySetup: S. cerevisiae sgs1 mgt1 strain, at 50.0 µM, stronger effect = higher value
About 79,000 compounds went through this panel and 15% of them were active in at least one assay; those are over-represented in the sample as a whole.
Below, each entry is listed alongside its reported growth inhibition.
metric: growth inhibition (%)

{"columns": ["molecule", "metric", "readoutNumber"],
 "data": [
  ["CC(=O)N(C(=O)CC(=O)N1N=C(c2ccccc2)C(N=Nc2ccccc2[N+](=O)[O-])C1=O)c1ccc(Cl)cc1 (stereo not given)", "growth inhibition", -0.2],
  ["O=C(Nc1ccc(Br)cc1)Oc1ccc(-c2ccccc2)cc1", "growth inhibition", 4.6],
  ["CCCNC1=C(OC)C(=O)C(NCCC)=C(OC)C1=O", "growth inhibition", 9.15],
  ["O=C1NC(=O)C(F)[CH]([Ge](=[O])[O][Ge](=[O])[CH]2NC(=O)NC(=O)C2F)N1 (stereo not given)", "growth inhibition", 0.2],
  ["CCC1CNCCC1CC(=O)O (stereo not given)", "growth inhibition", -2.05],
  ["O=C(O)c1cccc2c1C(=O)c1c(O)cccc1C2=O", "growth inhibition", 42.4],
  ["CCOC(=O)/C=C/C(=O)N(C)c1ccccc1", "growth inhibition", -5.3],
  ["CCOc1c(C)cc(C(C)c2cc3c(cc2OC)OCO3)cc1C (stereo not given)", "growth inhibition", 23.5],
  ["CCCCCCCCCC1OCCC(C)O1 (stereo not given)", "growth inhibition", -0.6],
  ["CCCCCCC/C=C\\C=O", "growth inhibition", 7.95],
  ["COC(=O)C1(CC(=O)Cc2ccccc2)NC(=S)NC(=O)C1C#N (stereo not given)", "growth inhibition", -12.2],
  ["COc1ccc2c(c1)CC[C@@H]1[C@@H]2CC[C@]2(C)[C@H](S)CC[C@@H]12", "growth inhibition", 21.4],
  ["CN1C2CCC1C1N=NN(c3cc(C(F)(F)F)cc(C(F)(F)F)c3)C1(N1CCOCC1)C2 (stereo not given)", "growth inhibition", -27.7],
  ["c1ccc(-c2cc(-c3cc(-c4ccccc4)n[nH]3)[nH]n2)cc1", "growth inhibition", -21.4],
  ["O=C1OC(c2cccc3ccc(Br)cc23)c2ccccc21 (stereo not given)", "growth inhibition", 6.2]
]}

###

- assayText: NCI Yeast Anticancer Drug Screen. Data for the sgs1 mgt1 strain (AID 161);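 also: 0% = growth of cultures given vehicle only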
- assaySetup: S. cerevisiae sgs1 mgt1 strain, at 50.0 µM
- Description: Growth inhibition of yeast strains with defined genetic alterations is measured as a screen for potential anti-cancer activity. Selected strains with alterations in DNA damage repair or cell cycle control were exposed to compounds and growth inhibition was measured relative to vehicle treated controls. The strain used in this assay is sgs1 mgt1
About 79,000 compounds went through this panel and 15% of them were active in at least one assay; those are over-represented in the sample as a whole. The source made the active and inactive calls. No stated cut-off is given here; in the data, active means growth inhibition above about 70%; inactive means the rest.
Outcomes: active, inactive

{"columns": ["compound", "class"],
 "data": [
  ["N#C/C(=C/N1C(=O)/C(=C/c2ccc([N+](=O)[O-])cc2)SC1=S)C(N)=O", "inactive"],
  ["N#C/C(N)=C(\\C#N)N=CNc1ccc(N)cc1", "inactive"],
  ["O=C(O)C#Cc1cccc(Cl)c1", "inactive"],
  ["Cc1ccc(-c2ccc(C)cc2)cc1", "inactive"],
  ["CC(=O)Nc1cccc(/C=C/c2ccc([N+](=O)[O-])cc2)c1", "inactive"],
  ["COc1ccc(N2C(=O)/C(=C\\c3ccc(N(CCC#N)CCC#N)cc3)N=C2COc2ccccc2)cc1", "inactive"],
  ["CCOC(=O)NC(=Cc1ccccn1)c1ccc(Cl)cc1 (mixture of isomers)", "inactive"],
  ["CSC1=NC=C(C#N)C2=NC(c3ccccc3)NN12 (centres undefined)", "inactive"],
  ["N=C(N)c1ccc(N=Nc2ccc(N)cc2N)cc1", "inactive"],
  ["Nc1nnc2nc(CC(=O)c3cccc([N+](=O)[O-])c3)c(CC(=O)c3cccc([N+](=O)[O-])c3)nn12", "inactive"],
  ["COc1nnc(-c2ccccc2)c(-c2ccccc2)n1", "inactive"],
  ["O=C1/C(=C/c2ccc(Cl)c(Cl)c2)CCC/C1=C\\c1ccc(Cl)c(Cl)c1", "inactive"],
  ["NC(=O)NC1CCCCCCC1", "inactive"],
  ["COc1cc(-c2cc(=O)c3cc4c(cc3[nH]2)OCO4)cc(OC)c1O", "inactive"],
  ["O=C(O)c1cccc2c1-c1ccc(NC(=O)C(Cl)Cl)cc1C2=O", "inactive"],
  ["O=c1oc2ccc([N+](=O)[O-])cc2cc1-c1csc(-c2ccccc2)n1", "inactive"],
  ["[O-]c1c[n+](-c2ccc3c(c2)OCO3)no1", "inactive"],
  ["O=C(O)c1cccc(C2=CCCC2)c1", "inactive"],
  ["CCOC(=O)c1c(C)c2c(n1C)CCC(C(=O)OCC)C2=O (centres undefined)", "inactive"],
  ["NCc1ccc(O)c(O)c1", "inactive"],
  ["COC(=O)C1(CCCCCBr)CCCCCCCCCCC1=O (centres undefined)", "inactive"],
  ["O=C(CCl)N1CCC(CC2(c3cc4ccccc4[nH]3)OCCO2)CC1", "inactive"],
  ["O=C(CC(=O)c1ccccc1)CC(Nc1ccccc1)c1ccccc1 (centres undefined)", "inactive"],
  ["CC(C)C1CCC(=O)CC1", "inactive"],
  ["Cc1ccc(N=NC(C2=NC(=O)CS2)c2nc3ccccc3[nH]2)cc1 (centres undefined)", "inactive"],
  ["Cc1ccc(NC(=O)C(c2ccccc2)c2ccccc2)cc1", "inactive"],
  ["N/C(=N\\OC(=O)Nc1cccc(Cl)c1)C(Cl)(Cl)Cl", "active"],
  ["CC(=O)Nc1ccc(I)cc1", "inactive"],
  ["O=C(O)CCCCC(=O)c1ccccc1", "inactive"],
  ["CC(=O)c1cccc2ccccc12", "inactive"],
  ["O=C1c2ccccc2CC1(c1ccccc1)c1ccccc1", "inactive"],
  ["c1ccc2c(-c3cnc(-c4ccc(-c5ncc(-c6cccc7ccccc67)o5)cc4)o3)cccc2c1", "inactive"],
  ["CN(C)c1nc(N(C)C)nc(N(C)C=O)n1", "inactive"],
  ["O=C1c2ccccc2C(=O)N1CC(O)COc1cccc2ccccc12 (centres undefined)", "inactive"]
]}
